Provenance of the data: patent US20120165503A1

- subjectOfTest: human glucagon receptor (human, UniProt P47871 26-477)
- Sequence (P47871 26-477): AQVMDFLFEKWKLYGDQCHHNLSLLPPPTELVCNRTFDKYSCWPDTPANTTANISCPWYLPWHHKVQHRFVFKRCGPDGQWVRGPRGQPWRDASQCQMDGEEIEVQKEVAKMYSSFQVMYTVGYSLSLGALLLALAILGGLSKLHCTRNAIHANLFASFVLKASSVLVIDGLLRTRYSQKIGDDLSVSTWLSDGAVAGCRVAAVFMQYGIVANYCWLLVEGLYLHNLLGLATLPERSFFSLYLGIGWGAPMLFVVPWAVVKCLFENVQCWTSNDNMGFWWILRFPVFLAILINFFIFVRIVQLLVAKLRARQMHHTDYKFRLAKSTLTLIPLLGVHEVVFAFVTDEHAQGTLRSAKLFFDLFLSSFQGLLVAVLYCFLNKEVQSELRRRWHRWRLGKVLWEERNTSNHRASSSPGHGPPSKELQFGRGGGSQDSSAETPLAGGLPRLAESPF
- method: cell-based or functional assay
Where no end group is shown, it is not given here. [ ]: non-standard residue; d: D form. Nle = CCCC[C@H](N)C(=O)O; Aib = CC(C)(N)C(=O)O
measure: % Activation of GCGR (%)
Report only the number, with the unit % understood.

Provide % Activation of GCGR value for the following binder: HXQGTFTSDYSKYLDSRRAQDFVQWLMNTKRNRNNIAC (Aib at position 2; C7 = Cys(Oxa4-cholesterol) at position 38; C-terminal amide) [OXM216]
93

Give the measured % Activation of GCGR for H[Aib]QGTFTSDYSKYLDSRRAQDFVQWL[Nle]NTKRNRNNIAC(cholesterol)-NH2 [OXM212]
115

Fill in % Activation of GCGR for record HXQGTFTSDYSKYLDSRRAQDFVQWLMNTKRNRNNIAK (Aib at position 2; K(palmitoyl) at position 38; C-terminal amide) [OXM177]
93

Identify measured % Activation of GCGR corresponding to HSQGTFTSDYSKYLDSRRAQDFVQWLMNTKRNRNNIAC (D-Ser at position 2; C7 = Cys(Oxa4-cholesterol) at position 38; C-terminal amide) [OXM115]
100
